# target or test system: CRTH2 (Homo sapiens, UniProt Q9Y5Y4)
# Sequence (Q9Y5Y4 whole entry): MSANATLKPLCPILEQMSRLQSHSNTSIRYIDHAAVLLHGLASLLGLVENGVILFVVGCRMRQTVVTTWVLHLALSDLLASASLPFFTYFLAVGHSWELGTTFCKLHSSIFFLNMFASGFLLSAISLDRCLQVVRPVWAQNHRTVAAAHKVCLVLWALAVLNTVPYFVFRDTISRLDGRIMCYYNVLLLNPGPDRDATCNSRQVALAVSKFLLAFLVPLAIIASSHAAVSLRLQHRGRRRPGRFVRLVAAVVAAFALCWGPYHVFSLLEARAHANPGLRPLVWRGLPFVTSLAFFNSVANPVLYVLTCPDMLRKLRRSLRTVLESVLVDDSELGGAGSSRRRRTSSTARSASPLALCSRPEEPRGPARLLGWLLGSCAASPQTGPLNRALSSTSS
# experimental protocol: FRET based competitive immunoassay (cAMP) in CRTH2 expressing CHO cells
# settings: CRTH2 expressing CHO cells incubated with forskolin and PGD2; Eu3+ cryptate-labeled anti-cAMP and d2-labeled cAMP
quantity: IC50

• Cc1c(-c2cn(CC(F)(F)F)c(=O)c3c2CCCC3)c2cc(F)ccc2n1CC(=O)O [Example 90] = > 1000 nM
• Cc1c(-c2ccc(=O)n(Cc3cccc(F)c3F)c2)c2cc(F)ccc2n1CC(=O)N1CCCC1 [Example 299] = > 2000 nM

Here's the next entry for you.
Prompt: For CRTH2 (Homo sapiens, UniProt Q9Y5Y4), provide IC50 of Cc1c(-c2ccc(=O)n(Cc3ccccc3)n2)c2cc(F)ccc2n1C(=O)c1cccnc1 [Example 262b] please.
Response: > 10000 nM
